Give measured pIC50 for each item. Keep answers brief.
- TARGET OF ASSAY: Integrin alpha-IIb/beta-3 (Homo sapiens, UniProt P05106+P08514)
- Sequence (P05106 27-788 limits assumed): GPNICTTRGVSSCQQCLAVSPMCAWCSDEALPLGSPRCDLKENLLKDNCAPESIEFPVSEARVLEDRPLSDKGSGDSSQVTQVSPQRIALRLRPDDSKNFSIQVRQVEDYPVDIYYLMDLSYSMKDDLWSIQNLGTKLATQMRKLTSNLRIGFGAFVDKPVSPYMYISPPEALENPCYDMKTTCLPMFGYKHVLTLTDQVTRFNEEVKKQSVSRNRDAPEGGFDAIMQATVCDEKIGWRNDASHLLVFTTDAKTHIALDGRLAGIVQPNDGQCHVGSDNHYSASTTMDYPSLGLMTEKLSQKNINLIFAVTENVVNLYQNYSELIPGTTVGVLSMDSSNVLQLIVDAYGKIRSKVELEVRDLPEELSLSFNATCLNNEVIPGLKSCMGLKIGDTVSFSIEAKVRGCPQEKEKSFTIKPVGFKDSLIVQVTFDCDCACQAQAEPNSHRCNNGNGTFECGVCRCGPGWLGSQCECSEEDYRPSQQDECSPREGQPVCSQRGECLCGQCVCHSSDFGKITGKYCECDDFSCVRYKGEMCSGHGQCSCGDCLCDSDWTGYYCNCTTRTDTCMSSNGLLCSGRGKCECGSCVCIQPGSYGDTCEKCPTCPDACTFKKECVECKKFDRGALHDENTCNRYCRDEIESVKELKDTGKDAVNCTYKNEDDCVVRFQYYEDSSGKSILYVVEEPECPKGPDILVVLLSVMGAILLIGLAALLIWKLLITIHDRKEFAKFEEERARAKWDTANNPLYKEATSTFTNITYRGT
- Sequence (P08514 32-887 limits assumed): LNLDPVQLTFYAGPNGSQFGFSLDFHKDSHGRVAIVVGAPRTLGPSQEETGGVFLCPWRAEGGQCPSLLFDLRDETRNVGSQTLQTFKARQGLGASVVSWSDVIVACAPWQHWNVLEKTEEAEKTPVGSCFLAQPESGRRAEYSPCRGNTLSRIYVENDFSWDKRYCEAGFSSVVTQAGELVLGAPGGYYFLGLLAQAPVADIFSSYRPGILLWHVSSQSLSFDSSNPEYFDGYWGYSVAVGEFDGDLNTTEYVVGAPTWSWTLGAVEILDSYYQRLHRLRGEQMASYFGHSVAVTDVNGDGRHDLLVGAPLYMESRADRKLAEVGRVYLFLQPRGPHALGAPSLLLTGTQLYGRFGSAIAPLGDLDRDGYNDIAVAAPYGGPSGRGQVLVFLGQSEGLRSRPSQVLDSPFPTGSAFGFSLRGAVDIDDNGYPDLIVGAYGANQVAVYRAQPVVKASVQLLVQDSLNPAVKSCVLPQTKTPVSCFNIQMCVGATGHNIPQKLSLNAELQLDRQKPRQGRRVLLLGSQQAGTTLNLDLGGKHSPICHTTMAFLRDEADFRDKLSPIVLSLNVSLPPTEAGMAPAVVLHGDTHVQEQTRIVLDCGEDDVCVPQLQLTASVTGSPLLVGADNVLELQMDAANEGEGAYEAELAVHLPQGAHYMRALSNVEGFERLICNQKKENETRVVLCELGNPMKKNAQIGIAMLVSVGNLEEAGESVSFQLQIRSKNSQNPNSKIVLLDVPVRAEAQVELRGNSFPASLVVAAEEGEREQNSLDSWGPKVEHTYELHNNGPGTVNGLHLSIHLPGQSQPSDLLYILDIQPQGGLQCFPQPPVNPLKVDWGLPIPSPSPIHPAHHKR
- Sequence (P08514 891-1039 limits assumed): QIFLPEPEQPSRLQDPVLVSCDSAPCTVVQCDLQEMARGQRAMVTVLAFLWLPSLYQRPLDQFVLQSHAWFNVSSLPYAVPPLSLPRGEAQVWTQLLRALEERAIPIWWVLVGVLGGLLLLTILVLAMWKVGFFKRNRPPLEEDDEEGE
- PROTOCOL: Inhibition of alpha IIb beta3 integrin receptor in human platelet rich plasma
When answering, recall that pIC50 equals minus log10 of the concentration in mol/L, and write that number alone.

[ask] Any idea what its pIC50 is? The compound is Cc1cc(C)c(S(=O)(=O)N[C@@H](CNC(=O)C2=NO[C@]3(C2)C[C@@H](CNc2ncc[nH]2)N(C(=O)OCc2ccccc2)C3)C(=O)O)c(C)c1
[reply] 4.47

[ask] Any idea what pIC50 was measured for CCCCOC(=O)N1C[C@@]2(CC(C(=O)NC[C@H](NS(=O)(=O)c3c(C)cc(C)cc3C)C(=O)O)=NO2)C[C@H]1CNc1ncc[nH]1 ?
[reply] 4.96
